tested on: P. aeruginosa PAE UFR92; assay: MIC of compounds alone, broth microdilution (CLSI); format: cell-based; details: Pseudomonas aeruginosa, PAEUFR92, read-out: MIC alone PAE UFR92
MEASUREMENT LABEL: MIC

# COMPOUND, TEST SYSTEM, MEASUREMENT LABEL, REPORTED MEASUREMENT
records = [
    ("CC(=O)Nc1nc2c(s1)C1CN(C2)C(=O)N1OS(=O)(=O)[O-].[Na+] (stereo not drawn)", "P. aeruginosa PAE UFR92", "MIC", "> 32 µg/mL"),
    ("O=C(Nc1nc2c(s1)C1CN(C2)C(=O)N1OS(=O)(=O)[O-])OCc1ccccc1.[Na+] (stereo not drawn)", "P. aeruginosa PAE UFR92", "MIC", "> 32 µg/mL"),
    ("CCOC(=O)[C@@H]1c2c(-c3ccc(F)cc3)csc2[C@@H]2CN1C(=O)N2OS(=O)(=O)[O-].[Na+]", "P. aeruginosa PAE UFR92", "MIC", "> 32 µg/mL"),
]
